Target: Recombinant JAK2 (Homo sapiens)
Construct: purchased Carna Biosciences
Test: JAK biochemical assay (LANCE Ultra TR-FRET), JAK2
Conditions: recombinant JAK2, TR-FRET; read-out: Biochemical Assay (μM) JAK2
observable: IC50

I looked up N#CC(c1ccc(-n2cc(-c3ccnc4[nH]cnc34)cn2)cc1)N1CCOCC1 (stereo not shown) and its IC50 for Recombinant JAK2 (Homo sapiens) was > 0.5 µM

The reported Recombinant JAK2 (Homo sapiens) IC50 of O=C(NCC1CCCC1)N1CCN(c2ccnc3[nH]c(=O)[nH]c23)CC1 is > 1 µM

Note to self: IC50 of N#CCC(=O)NCc1ccc(-n2cc(-c3ccnc4[nH]cnc34)cn2)nc1 with Recombinant JAK2 (Homo sapiens) was > 1 µM

Reported IC50 (Recombinant JAK2 (Homo sapiens)) for entry CNC(=O)CC(c1ccc(-n2cc(-c3ccnc4[nH]cnc34)cn2)nc1)C(F)(F)F (stereo not shown) is > 0.1 µM

Reported IC50 (Recombinant JAK2 (Homo sapiens)) for entry N#CC1CCCCC1NC(=O)n1cc(-c2ccnc3[nH]cnc23)cn1 (stereo not shown) is > 0.5 µM

I looked up O=C(CC(c1ccc(-n2cc(-c3ccnc4[nH]cnc34)cn2)nc1)C(F)(F)F)N1CCOCC1 (stereo not shown) and its IC50 for Recombinant JAK2 (Homo sapiens) was > 0.5 µM

Recombinant JAK2 (Homo sapiens) assay, molecule CC1CN(C(=O)n2cc(-c3ccnc4[nH]cnc34)cn2)CC1C#N (stereo not shown) , recorded IC50 = > 1 µM

###

Molecular target: Recombinant TYK2 (Homo sapiens)
Construct: purchased Carna Biosciences
Sequence (P29597 whole entry): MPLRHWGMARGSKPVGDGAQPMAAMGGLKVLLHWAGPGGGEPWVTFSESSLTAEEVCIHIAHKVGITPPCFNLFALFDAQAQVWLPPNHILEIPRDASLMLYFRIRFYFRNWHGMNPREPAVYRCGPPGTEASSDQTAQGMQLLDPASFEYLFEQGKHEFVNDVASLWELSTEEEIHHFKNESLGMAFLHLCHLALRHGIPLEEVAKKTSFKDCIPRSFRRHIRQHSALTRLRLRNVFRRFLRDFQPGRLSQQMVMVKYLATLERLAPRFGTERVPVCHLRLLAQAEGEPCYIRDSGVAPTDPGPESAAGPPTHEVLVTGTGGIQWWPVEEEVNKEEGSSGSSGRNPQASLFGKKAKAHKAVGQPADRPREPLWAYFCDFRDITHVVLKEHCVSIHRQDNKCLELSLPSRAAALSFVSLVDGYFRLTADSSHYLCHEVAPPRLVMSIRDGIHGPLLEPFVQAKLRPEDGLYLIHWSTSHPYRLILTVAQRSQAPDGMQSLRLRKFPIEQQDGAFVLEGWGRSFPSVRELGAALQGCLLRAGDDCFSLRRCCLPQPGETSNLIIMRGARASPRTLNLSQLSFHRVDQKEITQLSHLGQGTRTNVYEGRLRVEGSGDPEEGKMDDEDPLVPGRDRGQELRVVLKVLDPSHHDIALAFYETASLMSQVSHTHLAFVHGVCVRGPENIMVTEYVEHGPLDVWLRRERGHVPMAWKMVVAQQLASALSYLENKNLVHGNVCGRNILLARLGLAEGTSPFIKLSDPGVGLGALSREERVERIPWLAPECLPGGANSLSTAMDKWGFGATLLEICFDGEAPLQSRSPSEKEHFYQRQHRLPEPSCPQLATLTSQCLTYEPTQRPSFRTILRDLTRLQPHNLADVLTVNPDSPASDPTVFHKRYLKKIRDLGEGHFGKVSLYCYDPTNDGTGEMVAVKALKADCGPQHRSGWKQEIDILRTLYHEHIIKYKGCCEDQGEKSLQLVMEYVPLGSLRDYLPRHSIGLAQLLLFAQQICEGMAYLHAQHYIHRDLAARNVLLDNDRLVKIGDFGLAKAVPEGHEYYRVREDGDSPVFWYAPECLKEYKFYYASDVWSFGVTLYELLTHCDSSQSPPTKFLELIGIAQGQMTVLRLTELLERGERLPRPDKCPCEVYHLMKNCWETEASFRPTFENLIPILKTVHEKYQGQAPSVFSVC
Assay: JAK biochemical assay (LANCE Ultra TR-FRET), TYK2
Conditions: recombinant TYK2, TR-FRET; read-out: Biochemical Assay (μM) TYK2
Would you kindly list IC50 for each of these compounds?

Reported IC50 ( N#CC1CN(C(=O)CNC(=O)n2cc(-c3ccnc4[nH]c(=O)[nH]c34)cn2)C1 ) = > 10 µM

Memo: CC(C)NC(=O)CCC(c1ccc(-n2cc(-c3ccnc4[nH]cnc34)cn2)nc1)C(F)(F)F (stereo not shown) , reported IC50: > 1 µM

Lab note: CCN1CC(C(O)(c2ccc(-n3cc(-c4ccnc5[nH]cnc45)cn3)nc2)C(F)(F)F)C1 (stereo not shown) gave IC50 of 0.06 µM

Lab note: measured IC50 of Cn1c(=O)[nH]c2nccc(-c3cnn(C(=O)NCC(F)(F)F)c3)c21 was > 10 µM

The value of IC50 measured for the compound N#CCc1ccc(-n2cc(-c3ccnc4[nH]cnc34)cn2)cc1F turned out to be > 1 µM

Measured IC50 of N#CC1CN(C(=O)n2cc(-c3ccnc4[nH]c(=O)[nH]c34)cn2)C1 : < 0.5 µM

For O=C(NCC(F)(F)F)n1cc(-c2ccnc3[nH]cnc23)cn1 the compound record lists IC50 as < 0.5 µM

###

For each record, write down the corresponding IC50.
Biological target: Recombinant TYK2 (Homo sapiens)
Construct: purchased Carna Biosciences
Test: JAK biochemical assay (LANCE Ultra TR-FRET), TYK2
Settings: recombinant TYK2, TR-FRET; read-out: Biochemical Assay (μM) TYK2
Experimental: Recombinant JAK1, JAK2, JAK3 and TYK2 (Carna Biosciences) were used to develop biochemical assays in 50 mM HEPES pH 7.5, 1 mM EGTA, 10 mM MgCl2, 2 mM DTT and 0.01% Tween-20. […] The intensity of the light emission is proportional to the level of ULight substrate phosphorylation. Compounds which interfere with JAK enzyme activity show a lesser substrate phosphorylation and values are projected in terms of % inhibition in comparison to vehicle control.
Counter-ions that a name gives are not always drawn.

# value of IC50, Recombinant TYK2 (Homo sapiens), item CC(C)NC(=O)CC[C@@H](c1ccc(-n2cc(-c3ccnc4[nH]cnc34)cn2)nc1)C(F)(F)F = > 1 µM

Entry CC(C)NCCC(c1ccc(-n2cc(-c3ccnc4[nH]cnc34)cn2)nc1)C(F)(F)F (centres unmarked) : IC50 on Recombinant TYK2 (Homo sapiens) = > 0.5 µM

Item: O=C(NCC(F)(F)F)n1cc(-c2ccnc3[nH]c(=O)[nH]c23)cn1 | System: Recombinant TYK2 (Homo sapiens) | IC50: 0.122 µM

Record COc1cc(-n2cc(-c3ccnc4[nH]cnc34)cn2)ccc1CC#N has Recombinant TYK2 (Homo sapiens) IC50 equal to > 10 µM

Reported Recombinant TYK2 (Homo sapiens) IC50 for item N#CCNC(=O)n1cc(-c2ccnc3[nH]c(=O)[nH]c23)cn1 [Example 1035, hydrochloride] was > 10 µM

Tested on Recombinant TYK2 (Homo sapiens): OC(c1ccc(-n2cc(-c3ccnc4[nH]cnc34)cn2)nc1)(C1CCCCC1)C(F)(F)F (centres unmarked) . Observed IC50: > 1 µM

Measured IC50 (Recombinant TYK2 (Homo sapiens)), entry N#CC1(c2ccc(-n3cc(-c4ccnc5[nH]cnc45)cn3)nc2)CC1 : > 10 µM

IC50 for Recombinant TYK2 (Homo sapiens) with input CS(=O)(=O)CC(Cc1ccc(-n2cc(-c3ccnc4[nH]cnc34)cn2)nc1)C(F)(F)F (centres unmarked) equals > 1 µM

The reported Recombinant TYK2 (Homo sapiens) IC50 of N#CCc1ccnc(-n2cc(-c3ccnc4[nH]cnc34)cn2)c1 is > 1 µM

Recorded IC50 for CC(C)[C@H](C#N)NC(=O)n1cc(-c2ccnc3[nH]c(=O)[nH]c23)cn1 on Recombinant TYK2 (Homo sapiens) was < 0.5 µM

Recombinant TYK2 (Homo sapiens) data for N#CCC(c1ccc(-n2cc(-c3ccnc4[nH]cnc34)cn2)nc1)C(F)(F)F (centres unmarked) ; its IC50: > 1 µM

###

Target: Recombinant JAK2 (Homo sapiens, UniProt O60674)
Construct: purchased Carna Biosciences
Sequence (O60674 whole entry): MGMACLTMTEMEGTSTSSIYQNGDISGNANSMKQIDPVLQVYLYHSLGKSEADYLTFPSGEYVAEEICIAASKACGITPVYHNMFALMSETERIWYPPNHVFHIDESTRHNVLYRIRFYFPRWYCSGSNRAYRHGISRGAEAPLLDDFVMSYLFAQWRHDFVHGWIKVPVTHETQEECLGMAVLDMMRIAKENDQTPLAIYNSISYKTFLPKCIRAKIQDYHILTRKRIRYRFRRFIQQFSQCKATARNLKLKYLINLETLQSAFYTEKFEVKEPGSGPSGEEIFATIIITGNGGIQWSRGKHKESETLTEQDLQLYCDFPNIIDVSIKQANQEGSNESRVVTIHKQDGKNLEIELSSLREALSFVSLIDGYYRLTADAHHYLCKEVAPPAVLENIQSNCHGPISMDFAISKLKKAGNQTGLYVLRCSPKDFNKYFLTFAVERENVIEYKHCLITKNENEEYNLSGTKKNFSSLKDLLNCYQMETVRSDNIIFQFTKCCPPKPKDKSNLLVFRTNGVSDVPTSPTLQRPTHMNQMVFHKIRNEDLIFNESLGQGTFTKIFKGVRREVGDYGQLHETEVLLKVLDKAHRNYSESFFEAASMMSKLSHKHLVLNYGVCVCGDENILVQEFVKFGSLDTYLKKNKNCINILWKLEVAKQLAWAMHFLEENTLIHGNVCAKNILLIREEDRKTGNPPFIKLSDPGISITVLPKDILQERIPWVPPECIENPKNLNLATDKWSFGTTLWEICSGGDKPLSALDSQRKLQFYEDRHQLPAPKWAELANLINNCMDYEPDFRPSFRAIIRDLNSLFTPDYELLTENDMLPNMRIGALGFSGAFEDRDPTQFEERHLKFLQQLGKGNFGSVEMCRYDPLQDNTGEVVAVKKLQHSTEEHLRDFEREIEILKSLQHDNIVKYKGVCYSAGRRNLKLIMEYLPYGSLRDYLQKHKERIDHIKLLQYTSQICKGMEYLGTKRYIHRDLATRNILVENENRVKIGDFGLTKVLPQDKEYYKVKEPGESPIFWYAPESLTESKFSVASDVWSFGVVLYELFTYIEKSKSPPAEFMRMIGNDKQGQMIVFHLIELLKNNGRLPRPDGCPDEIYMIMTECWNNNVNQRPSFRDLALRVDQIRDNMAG
Assay: JAK biochemical assay (LANCE Ultra TR-FRET), JAK2
Conditions: recombinant JAK2, TR-FRET; read-out: Biochemical Assay (μM) JAK2
Could you please report measured IC50 for the items listed next?

Briefly, IC50 measured for OC(c1ccc(-n2cc(-c3ccnc4[nH]cnc34)cn2)nc1)(C1CCCCC1)C(F)(F)F (stereo not shown) [Example 1130] : > 0.1 µM

Reported IC50 of O=C(NCC(F)(F)F)n1cc(-c2ccnc3[nH]c(-c4ccccc4)nc23)cn1 [Example 1094] : < 0.5 µM

Data point: CS(=O)(=O)CCC(F)c1ccc(-n2cc(-c3ccnc4[nH]cnc34)cn2)nc1 (stereo not shown) [Example 1162] ; IC50 = > 0.5 µM

Kindly note the recorded IC50 for O=C(NCC(F)(F)F)Nc1ccc(-c2ccnc3[nH]c(=O)[nH]c23)cc1 [Example 1003] , which is 0.036 µM

Documented IC50 of O=C(NCC(F)(F)F)n1cc(-c2ccnc3[nH]c(C4CC4)nc23)cn1 [Example 1096] : > 1 µM

// IC50 lookup, molecule = CCn1c(=O)[nH]c2nccc(-c3cnn(C(=O)NCC(F)(F)F)c3)c21 [Example 1042] , result: > 1 µM

Record CN1CCC(C(O)c2ccc(-n3cc(-c4ccnc5[nH]cnc45)cn3)nc2)CC1 (stereo not shown) [Example 1165] , field IC50: > 1 µM

Summary for this molecule, CN1CCN(CCC(c2ccc(-n3cc(-c4ccnc5[nH]cnc45)cn3)nc2)C(F)(F)F)CC1 (stereo not shown) [Example 1219] : IC50 is < 0.1 µM

# IC50 of CCN1CCC(C(O)(c2ccc(-n3cc(-c4ccnc5[nH]cnc45)cn3)nc2)C(F)(F)F)CC1 (stereo not shown) [Example 1221] = < 0.1 µM

Documented IC50 of OCC(Cc1ccc(-n2cc(-c3ccnc4[nH]cnc34)cn2)nc1)C(F)(F)F (stereo not shown) [Example 1191] : < 0.1 µM

The molecule listed as CS(=O)(=O)NCC(c1ccc(-n2cc(-c3ccnc4[nH]cnc34)cn2)nc1)C(F)(F)F (stereo not shown) [Example 1209] has a reported IC50 of < 0.1 µM

So for O=C(NCC(F)(F)F)n1cc(-c2cccc3[nH]c(=O)[nH]c23)cn1 [Example 1036] , the logged IC50 turned out to be > 10 µM

O=C(CCC(F)(F)F)n1cc(-c2ccnc3[nH]c(=O)[nH]c23)cn1 [Example 1031] yielded IC50 of > 1 µM

The molecule listed as O=C(NCC(F)(F)F)c1ccc(-c2ccnc3[nH]c(=O)[nH]c23)cc1 [Example 1001] has a reported IC50 of > 10 µM

Entry N#C[C@H](NC(=O)n1cc(-c2ccnc3[nH]c(=O)[nH]c23)cn1)C1CC1 [Example 1054] — recorded IC50 = > 0.5 µM

Just so you know, measured IC50 for CC(=O)N1CC(C(O)(c2ccc(-n3cc(-c4ccnc5[nH]cnc45)cn3)nc2)C(F)(F)F)C1 (stereo not shown) [Example 1236] came out at > 0.03 µM

So, N#CCNC(=O)c1ccc(-n2cc(-c3ccnc4[nH]cnc34)cn2)nc1 [Example 1088] ? Its IC50 was > 1 µM

Measured IC50 of CC(CC#N)NC(=O)n1cc(-c2ccnc3[nH]c(=O)[nH]c23)cn1 (stereo not shown) [Example 1046] : < 0.5 µM

According to the records, this molecule CS(=O)(=O)CCC(c1cccc(-n2cc(-c3ccnc4[nH]cnc34)cn2)n1)C(F)(F)F (stereo not shown) [Example 1175] displays IC50 of > 1 µM
